Tested on: Moraxella catarrhalis
Experiment: MIC against Gram-negative bacteria: Moraxella catarrhalis
Assay type: cell-based
Conditions: Moraxella catarrhalis; 96-well plate, 5×10^5 CFU/mL, 37° C., 10 h
Measured MIC (μg/mL) M. catarrhalis of individual entries
Give the number; µg/mL is assumed, so skip it.

INSERT INTO results (substance, assay_target, numeric_value) VALUES
  ('PRT20 (QKNLCNNTGDPEMCPENGSCVPDGPGLLQCVCADGFHGYKCM; listed as Homo sapiens)', 'Moraxella catarrhalis', 12.5),
  ('PRT115 (SRNPCSSSPCRGGATCVLGPHGKNYTCRCPQGYQLDSSQLDCV; listed as Homo sapiens)', 'Moraxella catarrhalis', 50),
  ('PRT35 (AMDLCARRLLDPCEHQCDPETGRREHRAAGECLCYEGYMKDPVHKHLCI; listed as Homo sapiens)', 'Moraxella catarrhalis', 50);

Kindly review the next substance as well.
## Task State the recorded MIC (μg/mL) M. catarrhalis for this entry: PRT1497 (KPVCEPGCGAHGTCHEPNKCQCQEGWHGRHCN; listed as Homo sapiens)
## Result 50
